All values here come from patent US20250221966A1.

Molecular target: human RXFP1 (Homo sapiens)
Construct: expressed in transfected cells
Sequence (Q9HBX9 1-757): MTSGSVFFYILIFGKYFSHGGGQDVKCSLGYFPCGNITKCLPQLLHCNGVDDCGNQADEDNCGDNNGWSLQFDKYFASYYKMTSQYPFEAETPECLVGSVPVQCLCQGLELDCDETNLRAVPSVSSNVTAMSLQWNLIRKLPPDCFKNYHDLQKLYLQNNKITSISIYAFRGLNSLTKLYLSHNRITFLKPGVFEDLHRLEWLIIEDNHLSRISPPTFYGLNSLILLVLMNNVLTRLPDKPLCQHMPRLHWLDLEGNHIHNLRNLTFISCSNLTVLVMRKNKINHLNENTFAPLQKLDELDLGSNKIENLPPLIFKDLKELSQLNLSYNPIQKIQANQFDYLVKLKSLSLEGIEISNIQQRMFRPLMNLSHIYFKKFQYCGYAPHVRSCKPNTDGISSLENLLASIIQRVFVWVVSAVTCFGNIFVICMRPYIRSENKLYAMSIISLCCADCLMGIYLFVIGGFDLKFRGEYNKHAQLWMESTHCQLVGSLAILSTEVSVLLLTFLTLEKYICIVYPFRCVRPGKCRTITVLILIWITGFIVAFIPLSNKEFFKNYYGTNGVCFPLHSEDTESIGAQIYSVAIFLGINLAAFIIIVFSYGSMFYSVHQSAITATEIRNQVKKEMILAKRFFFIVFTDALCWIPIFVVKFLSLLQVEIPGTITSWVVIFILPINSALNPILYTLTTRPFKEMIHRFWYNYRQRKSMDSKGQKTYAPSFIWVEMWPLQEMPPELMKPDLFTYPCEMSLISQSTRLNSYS
Test: RXFP1 cAMP assay (hRXFP1 HEK293 cAMP assay, HTRF)
Format: cell-based
Settings: HEK293 cells stably expressing human RXFP1, 30 min at room temperature, read-out: cAMP hRXFP1 HEK293 Assay EC50
Assignment: determine reported pEC50 for the given compounds.
Please keep in mind that pEC50 is minus log10 of the molar concentration; only the number is needed.

Inquiry: Need pEC50 of COc1ccc(-c2ccc(C(=O)O)cc2)cc1C(=O)N[C@@H]1C2CCC(/C2=C/c2ccccc2)[C@@H]1C(=O)Nc1ccc(F)c(C(F)(F)F)c1 (stereo partly drawn) , thanks.
Reply text: 7.96

Inquiry: Need pEC50 of COc1ccc(-c2ccc(CC(=O)O)cc2)cc1C(=O)N[C@@H]1C2CCC(/C2=C/c2cnoc2)[C@@H]1C(=O)Nc1ccc(F)c(C(F)(F)F)c1 (stereo partly drawn) , thanks.
Reply text: 7.70

Inquiry: Need pEC50 of COc1ccc(C2=NOC3COCC23)c(F)c1C(=O)N[C@H]1[C@@H](C(=O)Nc2ccc(F)c(C(F)(F)F)c2)[C@H]2CC[C@@H]1/C2=C\C1CC1 (single isomer, unassigned) [compound 693] , thanks.
Reply text: 6.10

Inquiry: Need pEC50 of COc1ccc(C2=NOC3COCC23)cc1C(=O)N[C@H]1[C@@H](C(=O)NCc2ccnn2C)[C@H]2CC[C@@H]1/C2=C\C1CC1 (stereo partly drawn) , thanks.
Reply text: 5.88

Inquiry: Need pEC50 of CCC(CC)CNC(=O)[C@@H]1[C@H](NC(=O)c2cc(C3=NOC4COCC34)ccc2OC)[C@@H]2CC[C@H]1/C2=C/C1CC1 (stereo partly drawn) , thanks.
Reply text: 7.43

Inquiry: Need pEC50 of O=C(N[C@H]1[C@@H](C(=O)Nc2ccc(F)c(C(F)(F)F)c2)[C@H]2CC[C@@H]1/C2=C\C1CC1)c1cc(C2=NOC3CC(CO)CC23)ccc1OCC(F)F (stereo partly drawn) [compound 783] , thanks.
Reply text: 8.47
